Listing of entries alongside the reported aptazyme ON/OFF ratio.
B1: Pistol ribozyme (parent)
chain: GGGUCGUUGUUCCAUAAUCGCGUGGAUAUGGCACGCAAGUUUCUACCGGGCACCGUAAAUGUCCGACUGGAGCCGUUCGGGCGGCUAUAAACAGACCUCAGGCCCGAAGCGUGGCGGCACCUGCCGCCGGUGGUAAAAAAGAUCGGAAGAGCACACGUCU

- Variants of: B1
- protocol: aptazyme ON/OFF ratio, guanine; higher = stronger switching; co-transcriptional cleavage with and without guanine
Just the number, please, no unit attached.

For orientation, consider the following solved cases.
mutant_name	aptazyme ON/OFF ratio
U8G U11C	2.46
U8C G9C U11C C13A	1.11
G9A U11A C12A C13A	1.33
U7C U8A G9A U11A C13G	1.04

// query aptazyme ON/OFF ratio value for entry U7C U8G U10G C12A C13A
1.24

Try this variant next: U7C G9U U11G C13G
1.03

Also U7A U8A U11G C12A C13G ?
1.11

// query: U7C U8C G9U U10C U11A C12A C13U
1.09

Can you check U7G U10C C12G C13U next?
1.14
